These measurements were taken from patent US7737166B2.

// values below are reported GI80 (μg/ml) C. glabrata ATCC48435
- Tested on: C. glabrata ATCC48435
- experimental_details: Antifungal activity (GI80), growth inhibition in YPD20 medium by absorbance at 600 nm
- Format: cell-based
- measurement_conditions: minimum concentration for at least 80% cell growth inhibition, 37° C., absorbance 600 nm
Write the value in µg/mL as a bare number.

* CC(=O)NC1CN(c2nc3c(C#N)c(C)c(-c4ccccc4)c(N4CC[C@H](N(C)C)C4)c3o2)C1 [Example 126] | 0.125
* CN[C@H]1CCN(c2c(-c3csc(C)n3)c(C)c(C#N)c3nc(C(=O)N(C)C)oc23)C1 [Example 52] | 0.25

Turning to the following compound.
Incoming: # value lookup — system C. glabrata ATCC48435, readout GI80 (μg/ml) C. glabrata ATCC48435, item CCC(C)n1ncn(-c2ccc(N3CCN(c4ccc(OCC5COC(Cn6cncn6)(c6ccc(Cl)cc6Cl)O5)cc4)CC3)cc2)c1=O (stereo not drawn) [ITZ, Itraconazole, reference compound]
Outgoing: 0.25

* * *

quantity_measured: melting point

The examples below pair each entry with its known result.
• Cc1c(-c2ccccc2)c(N2CC[C@H](N(C)C)C2)c2oc(N3CCOCC3)nc2c1C#N = 215 to 217 °C
• Cc1c(-c2ccccc2)c(N2CC[C@H](N(C)C)C2)c2oc(N3CC(CO)C3)nc2c1C#N = 48 to 51 °C
• CN[C@@]1(C)CCN(c2c(-c3cccc(F)c3)c(C)c(C#N)c3nc(C(=O)N(C)C)oc23)C1 = 178 to 180 °C
• Cc1c(-c2ccccn2)c(N2CC[C@H](N(C)C)C2)c2oc(C3CC3)nc2c1C#N = 150 to 151 °C
• Cc1c(-c2ccccc2N)c(N2CC[C@H](N(C)C)C2)c2oc(C3CC3)nc2c1C#N = 191 to 194 °C

Incoming: What value of melting point has been recorded for this entry: Cc1c(-c2ccccc2)c(C2=CC(N(C)C)CC2)c2oc(C(C)(C)C)nc2c1C#N (centres unmarked)
Outgoing: 114 to 116 °C

Incoming: `Cc1c(-c2ccccc2)c(N2CC(N(C)C)C2)c2oc(C(C)(C)C)nc2c1C#N` ?
Outgoing: 211 to 212 °C

Incoming: Again, but for Cc1c(-c2ccccc2)c(N2CCC(N(C)C)C2)c2oc(C(C)(C)CO)nc2c1C#N (centres unmarked)
Outgoing: 175 to 178 °C

Incoming: Same question for `Cc1c(-c2ccccc2)c(N2CC[C@H](N(C)C)C2)c2oc(N3CC(C)(O)C3)nc2c1C#N` please.
Outgoing: 167 to 169 °C

Incoming: Ok, now `Cc1c(-c2ccccc2)c(N2CC[C@H](N(C)C)C2)c2oc(-c3ccccc3N)nc2c1C#N`
Outgoing: 259 to 263 °C

Incoming: Also, `Cc1c(-c2cnccn2)c(N2CC[C@H](N(C)C)C2)c2oc(C3CC3)nc2c1C#N` please.
Outgoing: 157 to 159 °C

* * *

quantity_measured: melting point

Some compounds with known melting point results, for comparison:
- Cc1c(-c2ccccc2)c(N2CC[C@H](N(C)C)C2)c2oc(C(=O)N(C)CCc3ccccc3)nc2c1C#N: 138 to 141 °C
- Cc1c(-c2ccccc2)c(N2CC[C@H](N(C)C)C2)c2oc(C(C)C)nc2c1C#N.Cl: 168 to 170 °C (dec.)
- Cc1c(-c2ccccc2)c(C2=CC(N(C)C)CC2)c2oc(C3CC3)nc2c1C#N (stereo not shown): 144 to 146 °C
- Cc1c(Br)c(N2CC[C@H](N(C)C)C2)c2oc(C3CC3)nc2c1C#N: 82 to 86 °C
- Cc1nc(-c2c(C)c(C#N)c3nc(C4CC4)oc3c2N2CC[C@H](N(C)C)C2)cs1: 167 to 168 °C
- Cc1nc(-c2c(C)c(C#N)c3nc(C(=O)N(C)C)oc3c2N2CC[C@H](N(C)C)C2)cs1: 153 to 156 °C

Incoming: Which melting point reading was recorded for the compound `CC(=O)c1c(C)c(C#N)c2nc(C3CC3)oc2c1N1CC[C@H](N(C)C)C1` ?
Outgoing: 142 °C
